biological target: T1, recombinant BLyS/APRIL heterotrimer (Hisx6-zz12.6 BLyS with Flag-zz12.6 APRIL), predominantly 2 APRIL to 1 … (human, UniProt O75888 110-250; Q9Y275 141-285); experiment: SPR; Biacore 3000; atacicept, BCMA-Ig and BAFF-R-Ig covalently immobilized on a CM4 chip; ligands ~0.05 to 20 nMol/L flowed at 50 ul/min, 25 C; 20 mmol/L sodium phosphate, 150 mmol/L NaCl, 0.05% polysorbate 20, pH 7.5; KD from ka and kd, global fit to a 1:1 model; stoichiometry not determined; conditions: both partners purified
T1 construct: human APRIL amino acids 110-250, downstream of the otPA leader, Flag and the proprietary zz12.6 trimerization domain; The preparation holds a small fraction of 1 APRIL to 2 BLyS (AB2) heterotrimers; also called heterotrimers; HT; not shown: Flag, N-terminal, kept; zz12.6 trimerization domain, N-terminal, kept; His6, N-terminal, kept; copies: 2 + 1
T1 sequence (O75888 110-250, chain 1 of 2): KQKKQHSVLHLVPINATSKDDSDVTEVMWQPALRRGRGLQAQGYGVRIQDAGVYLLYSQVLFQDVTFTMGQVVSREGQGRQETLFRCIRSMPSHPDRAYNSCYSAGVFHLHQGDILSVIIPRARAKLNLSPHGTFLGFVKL
T1 sequence (Q9Y275 141-285, chain 2 of 2): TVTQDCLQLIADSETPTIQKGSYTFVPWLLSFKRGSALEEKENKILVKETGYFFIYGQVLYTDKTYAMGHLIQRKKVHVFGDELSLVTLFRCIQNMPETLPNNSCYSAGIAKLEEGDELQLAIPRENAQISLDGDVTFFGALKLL
Listed here: items and their measured Kd.
The reply should be a number in nM, with the unit left off.

atacicept (Fc fusion, human, UniProt O14836 1-165, looked up, also called TACI-Ig; soluble receptor fusion protein of TACI) MSGLGRSRRGGRSRVDQEERFPQGLWTGVAMRSCPEEQYWDPLLGTCMSCKTICNHQSQRTCAAFCRSLSCRKEQGKFYDHLLRDCISCASICGQHPKQCAYFCENKLRSPVNLPPELRRQRSGEVENNSDNSGRYQGLEHRGSEASPALPGLKLSADQVALVYS ... 0.4

For the next question, use this binder.
Task: Requested read-out: Kd. Entry: B-cell maturation antigen (BCMA)-immunoglobulin (Ig) (Fc fusion, UniProt Q02223 1-54, looked up, BCMA, soluble receptor-Fc fusion protein; Construct not described in the main text; Additional file 1 may describe it; also called BCMA-Ig) MLQMAGQCSQNEYFDSLLHACIPCQLRCSSNTPPLTCQRYCNASVTNSVKGTNA
Result: 0.01

Source listed as paper PMC2888197.
